Target: T1, recombinant human Siglec-15-his protein (Bonopusbio) (human, UniProt Q6ZMC9 20-263)
T1 construct: Bought (CW37-50 ug in the ELISA; the SPR paragraph prints CW70-50 ug); whole entry named; also called recombinant human Siglec-15 protein
T1 sequence: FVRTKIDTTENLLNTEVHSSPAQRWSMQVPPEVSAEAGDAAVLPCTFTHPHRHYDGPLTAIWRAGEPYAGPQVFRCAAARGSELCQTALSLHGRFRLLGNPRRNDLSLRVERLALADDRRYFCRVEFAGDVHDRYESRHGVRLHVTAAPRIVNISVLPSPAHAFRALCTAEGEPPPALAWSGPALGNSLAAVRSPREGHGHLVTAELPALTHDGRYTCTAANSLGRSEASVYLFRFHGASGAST
Experiment: SPR (Biacore T200), antibody on CM5 chip, Siglec-15-his as analyte
For each of the binders below, state its kon.
Give bare numbers, in M⁻¹ s⁻¹.

Answered cases to consult:
Read the entry S15B1-VH4 + VL2 (antibody, V domains shown, Humanized S15B1; also called humanized S15B1 VH4+VL2; huS15B1) VH: QVQLVQSGAEVKKPGASVKVSCKASGYAFSSSWMNWVKQAPGQGLEWIGRIYPGHGETNYNGKFKDRATMTADKSTSTVYMELSSLRSEDTAVYFCARVDNSDPYYFDYWGQGTTVTVSS VL: DIVLTQSPASLAVSPGQRATITCRASKSVSTSGYSYMHWYQQKPGQPPKLLIYLASNLESGVPARFSGSGSGTDFTLTINPVEAEDTATYYCQHGRELPFTFGGGTKLEIK and write its reported kon.
1.69e+06

Read the entry S15B1-VH3 + VL2 (antibody, V domains shown, Humanized S15B1; also called humanized S15B1 VH3+VL2; huS15B1) VH: QVQLVQSGAEVKKPGASVKVSCKASGYAFSSSWMNWVKQAPGQGLEWIGRIYPGHGETNYNGKFKDRATMTADTSTSTVYMELSSLRSEDTAVYFCARVDNSDPYYFDYWGQGTTVTVSS VL: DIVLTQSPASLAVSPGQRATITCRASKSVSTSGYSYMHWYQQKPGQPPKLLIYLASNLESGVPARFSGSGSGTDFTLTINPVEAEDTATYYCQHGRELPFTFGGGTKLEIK and write its reported kon.
4.49e+06

--- query ---
Read the entry S15B1-VH1 + VL1 (antibody, V domains shown, Humanized S15B1; also called humanized S15B1 VH1+VL1; huS15B1) VH: QVQLVQSGAEVKKPGASVKVSCKASGYAFSSSWMNWVRQAPGQGLEWIGRIYPGHGETNYNGKFKDRVTMTADTSTSTVYMELSSLRSEDTAVYFCARVDNSDPYYFDYWGQGTTVTVSS VL: DIVLTQSPASLAVSPGQRATITCRASKSVSTSGYSYMHWYQQKPGQPPKLLIYLASNLESGVPARFSGSGSGTDFTLTINPVEAEDTANYYCQHGRELPFTFGGGTKLEIK and write its reported kon.
3.35e+06

// data source = patent US20250361297A1
